- Species on record: Homo sapiens
- assay-info: Selectivity index, ratio of inhibition of human kappa opioid receptor to inhibition of human mu opioid receptor
parameter: Selectivity ratio
Output spec: single numeric token, no unit.

[in] Please look up its Selectivity ratio: `COc1ccc(CN(C)c2ccc3c(c2)[C@@]24CCCC[C@H]2[C@@H](C3)N(CC2CCC2)CC4)cc1`
[out] 34

[in] Which Selectivity ratio value belongs to `CN(Cc1cccc(O)c1)c1ccc2c(c1)[C@@]13CCCC[C@H]1[C@@H](C2)N(CC1CCC1)CC3` ?
[out] 10

[in] Name the reported Selectivity ratio value associated with the compound `COc1cccc(CNc2ccc3c(c2)[C@@]24CCCC[C@H]2[C@@H](C3)N(CC2CC2)CC4)c1`
[out] 220

[in] Any idea what Selectivity ratio was measured for `COc1cccc(CNc2ccc3c(c2)[C@@]24CCCC[C@H]2[C@@H](C3)N(CC2CCC2)CC4)c1` ?
[out] 220

###

- assay-system: Mu-type opioid receptor (Homo sapiens, UniProt P35372)
- Sequence (P35372 whole entry): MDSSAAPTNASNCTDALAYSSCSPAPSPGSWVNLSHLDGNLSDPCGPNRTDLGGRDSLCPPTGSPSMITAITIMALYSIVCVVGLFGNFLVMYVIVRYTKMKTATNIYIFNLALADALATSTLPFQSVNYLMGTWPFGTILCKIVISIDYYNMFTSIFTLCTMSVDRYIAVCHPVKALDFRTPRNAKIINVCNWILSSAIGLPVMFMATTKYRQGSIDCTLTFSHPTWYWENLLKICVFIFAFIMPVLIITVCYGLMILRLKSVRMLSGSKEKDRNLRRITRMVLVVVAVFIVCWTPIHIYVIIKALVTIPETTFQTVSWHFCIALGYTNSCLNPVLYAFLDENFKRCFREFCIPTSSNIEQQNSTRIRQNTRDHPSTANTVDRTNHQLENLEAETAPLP
- assay-info: Antagonist activity at human mu opioid receptor expressed in CHO cells assessed as inhibition of DAMGO-induced […]GTPgammaS binding after 60 mins by scintillation counting
- Type: functional, cell-based
- applied-conditions: read-out: IC50
pIC50: −log10 of the molar value.
Note to self: values exactly at 8 are 1. So pIC50 at or above 8 is 1, below is -1.

[in] For this compound, is measured pIC50 8 or higher? `COc1cccc(CNc2ccc3c(c2)[C@@]24CCCC[C@H]2[C@@H](C3)N(CC2CCC2)CC4)c1`
[out] -1

[in] Reported pIC50 reaches at least 8 for `Oc1ccc(CNc2ccc3c(c2)[C@@]24CCCC[C@H]2[C@@H](C3)N(CC2CCC2)CC4)cc1` ?
[out] -1

[in] pIC50 >= 8 for `Oc1ccccc1CNc1ccc2c(c1)[C@@]13CCCC[C@H]1[C@@H](C2)N(CC1CC1)CC3` ?
[out] -1

[in] Record `Oc1cccc(CNc2ccc3c(c2)[C@@]24CCCC[C@H]2[C@@H](C3)N(CC2CC2)CC4)c1` ; criterion: pIC50 no lower than 8. Met?
[out] 1

[in] Kindly determine if pIC50 recorded for `c1cc2c(cc1CNc1ccc3c(c1)[C@@]14CCCC[C@H]1[C@@H](C3)N(CC1CCC1)CC4)OCO2` is above or exactly 8.
[out] -1

[in] State whether the measured pIC50 reaches 8, counting equality as reaching it, for `COc1ccc(CNc2ccc3c(c2)[C@@]24CCCC[C@H]2[C@@H](C3)N(CC2CCC2)CC4)cc1`
[out] -1

[in] State whether the measured pIC50 reaches 8, counting equality as reaching it, for `Oc1ccccc1CNc1ccc2c(c1)[C@@]13CCCC[C@H]1[C@@H](C2)N(CC1CCC1)CC3`
[out] -1

[in] Can `COc1cccc(CNc2ccc3c(c2)[C@@]24CCCC[C@H]2[C@@H](C3)N(CC2CC2)CC4)c1` be said to have pIC50 at or above 8?
[out] 1

[in] Is the recorded value of pIC50 equal to or greater than 8 for this compound? `c1cc2c(cc1CNc1ccc3c(c1)[C@@]14CCCC[C@H]1[C@@H](C3)N(CC1CC1)CC4)OCO2`
[out] 1

[in] Please indicate if the recorded pIC50 for `Oc1cccc(CNc2ccc3c(c2)[C@@]24CCCC[C@H]2[C@@H](C3)N(CC2CCC2)CC4)c1` meets or exceeds 8.
[out] 1

###

- assay-system: Mu-type opioid receptor (Homo sapiens)
- assay-info: Agonist activity at human mu opioid receptor expressed in CHO cells assessed as stimulation of […]GTPgammaS binding after 60 mins by scintillation counting relative to control
- Format: functional, cell-based
Can you tell me Emax for the items I'm about to list?
Answer in %, number only, no unit symbol.

[in] So what's the measured Emax for this one? `Oc1cccc(CNc2ccc3c(c2)[C@@]24CCCC[C@H]2[C@@H](C3)N(CC2CCC2)CC4)c1`
[out] 30

[in] Name the recorded Emax for `c1cc2c(cc1CNc1ccc3c(c1)[C@@]14CCCC[C@H]1[C@@H](C3)N(CC1CC1)CC4)OCO2` .
[out] 18

[in] Return reported Emax; argument: `COc1ccc(CNc2ccc3c(c2)[C@@]24CCCC[C@H]2[C@@H](C3)N(CC2CC2)CC4)cc1`
[out] 30

[in] Fill in: Emax of `COc1cccc(CNc2ccc3c(c2)[C@@]24CCCC[C@H]2[C@@H](C3)N(CC2CCC2)CC4)c1` is ___
[out] 39

###

The following molecules each carry a recorded pKi for Kappa-type opioid receptor (Homo sapiens).
Scale note: pKi = -log10(concentration in M).

[in] Would you mind telling me what pKi value was observed for `COc1cccc(CN(C)c2ccc3c(c2)[C@@]24CCCC[C@H]2[C@@H](C3)N(CC2CCC2)CC4)c1` ?
[out] 7.60

[in] Return reported pKi; argument: `COc1ccccc1CNc1ccc2c(c1)[C@@]13CCCC[C@H]1[C@@H](C2)N(CC1CCC1)CC3`
[out] 8.66

[in] Query (molecule): `COc1ccc(CNc2ccc3c(c2)[C@@]24CCCC[C@H]2[C@@H](C3)N(CC2CCC2)CC4)cc1` ; field requested: pKi
[out] 8.35

[in] pKi lookup needed for `CN1CC[C@]23c4c5ccc(NCc6ccccc6O)c4O[C@H]2[C@@H](O)C=C[C@H]3[C@H]1C5` , thanks.
[out] 6.43

[in] pKi for `CN(Cc1cccc(O)c1)c1ccc2c(c1)[C@@]13CCCC[C@H]1[C@@H](C2)N(CC1CCC1)CC3` ?
[out] 7.64

[in] Returns the measured pKi for the input molecule. Input: `COc1cccc(CNc2ccc3c(c2)[C@@]24CCCC[C@H]2[C@@H](C3)N(CC2CCC2)CC4)c1`
[out] 8.46

[in] What value of pKi has been recorded for this entry: `CN(Cc1ccc(O)cc1)c1ccc2c(c1)[C@@]13CCCC[C@H]1[C@@H](C2)N(CC1CCC1)CC3`
[out] 8.39

[in] Param item = `Oc1cccc(CNc2ccc3c(c2)[C@@]24CCCC[C@H]2[C@@H](C3)N(CC2CC2)CC4)c1` ; retrieve measured pKi.
[out] 9.44

[in] I am curious: what pKi value has been reported for `c1cc2c(cc1CNc1ccc3c(c1)[C@@]14CCCC[C@H]1[C@@H](C3)N(CC1CCC1)CC4)OCO2` ?
[out] 8.96

[in] Param item = `Oc1ccccc1CNc1ccc2c(c1)[C@@]13CCCC[C@H]1[C@@H](C2)N(CC1CCC1)CC3` ; retrieve measured pKi.
[out] 8.77

[in] Which pKi reading was recorded for the molecule `COc1ccccc1CNc1ccc2c3c1O[C@H]1[C@@H](O)C=C[C@H]4[C@@H](C2)N(C)CC[C@@]341` ?
[out] 6.66

[in] I am curious: what pKi value has been reported for `CN1CC[C@]23c4c5ccc(NCc6ccc(O)cc6)c4O[C@H]2[C@@H](O)C=C[C@H]3[C@H]1C5` ?
[out] 6.25

[in] pKi for `COc1cccc(CNc2ccc3c4c2O[C@H]2[C@@H](O)C=C[C@H]5[C@@H](C3)N(C)CC[C@@]452)c1` ?
[out] 6.30

###

Dear all, this message contains pKi results, target or system Kappa-type opioid receptor (Homo sapiens).
Reminder that pKi means the negative base-10 logarithm of the concentration expressed in mol/L.

[in] Look at this compound and give its reported pKi. `COc1ccccc1CNc1ccc2c(c1)[C@@]13CCCC[C@H]1[C@@H](C2)N(CC1CC1)CC3`
[out] 8.89

[in] Form field: reported pKi of `Clc1ccc(CNc2ccc3c(c2)[C@@]24CCCC[C@H]2[C@@H](C3)N(CC2CCC2)CC4)cc1`
[out] 8.35

[in] Which pKi value belongs to `CN1CC[C@]23CCCC[C@H]2[C@H]1Cc1ccc(NCc2cccc(O)c2)cc13` ?
[out] 8.00

[in] I have this compound here, `Oc1cccc(CNc2ccc3c(c2)[C@@]24CCCC[C@H]2[C@@H](C3)N(CC2CCC2)CC4)c1` , and I need its recorded pKi.
[out] 8.72

[in] Any idea what its pKi is? The compound is `Oc1cccc(CNc2ccc3c(c2)C[C@@H]2[C@@H]4CCCC[C@]34CCN2CC2CC2)c1`
[out] 9.00

[in] pKi lookup needed for `CN(Cc1ccc(Cl)cc1)c1ccc2c(c1)[C@@]13CCCC[C@H]1[C@@H](C2)N(CC1CCC1)CC3` , thanks.
[out] 7.57

[in] Recorded pKi for `COc1ccc(CN(C)c2ccc3c(c2)[C@@]24CCCC[C@H]2[C@@H](C3)N(CC2CCC2)CC4)cc1` , please?
[out] 8.07

[in] Reported pKi for `COc1cccc(CNc2ccc3c(c2)[C@@]24CCCC[C@H]2[C@@H](C3)N(CC2CC2)CC4)c1` : what is it?
[out] 8.82

These data points were gathered from ChEMBL document CHEMBL2046406.
